Data provenance is ChEMBL document CHEMBL4359826.

Here's what we have: pKi numbers for Mu-type opioid receptor (Rattus norvegicus, UniProt P33535).
Friendly reminder that pKi comes from taking -log10 of the concentration in mol/L.

# Structure Notation, Endpoint Value
rows = [
    ("COc1ccc2c3c1O[C@H]1/C(=N\\OCC(=O)NCCCCCCN)CC[C@@]4(O)[C@@H](C2)N(C)CC[C@]314", 7.39),
    ("COc1ccc2c3c1O[C@H]1/C(=N\\OCC(=O)NCCN)CC[C@@]4(O)[C@@H](C2)N(C)CC[C@]314", 7.77),
    ("C[C@@H](NC(=O)[C@@H](N)Cc1ccc(O)cc1)C(=O)NCC(=O)N[C@@H](Cc1ccccc1)C(=O)NCCCC(=O)NCCCCCn1cc(C(=O)c2cccc3ccccc23)c2ccccc21", 7.70),
    ("COc1ccc2c3c1O[C@H]1/C(=N\\OCC(=O)NCCNC(=O)CCCCCn4cc(C(=O)c5cccc6ccccc56)c5ccccc54)CC[C@@]4(O)[C@@H](C2)N(C)CC[C@]314", 7.48),
]

Entry C[C@@H](NC(=O)[C@@H](N)Cc1ccc(O)cc1)C(=O)NCC(=O)N[C@@H](Cc1ccccc1)C(=O)NCCC(=O)NCCCCCn1cc(C(=O)c2cccc3ccccc23)c2ccccc21 , tested on Mu-type opioid receptor (Rattus norvegicus, UniProt P33535), has a reported pKi of 7.32
